Measured TGI values are reported for all entries that follow.
system: OVCAR-8 ovarian; assay: NCI tumour cell line growth inhibition, 48 h

{"compound": "COc1ccc2c(NCCCCCCNc3c4ccccc4nc4cc(OC)ccc34)c3ccccc3nc2c1", "TGI": "11 µM"}
{"compound": "O=C(/C=C/c1cccc(O)c1)c1cccc(-n2cc(-c3ccc4ccccc4c3)[nH]c2=O)c1", "TGI": "> 100 µM"}
{"compound": "O=S1CSSC1", "TGI": "52 µM"}
{"compound": "N#CC(C#N)=c1c2nsnc2c(=C(C#N)C#N)c2nsnc12", "TGI": "3.12 µM"}
{"compound": "CC(=Nc1ccc(S(N)(=O)=O)cc1)c1c(O)[nH]c2ccccc12", "TGI": "> 25 µM"}
{"compound": "CC1(C)CC(C#Cc2ccccc2)CC(C)(C)N1O", "TGI": "64 µM"}
{"compound": "O=S1(=O)c2cnccc2NC(=NCc2ccccc2)N1c1ccccc1", "TGI": "> 100 µM"}
{"compound": "CCOP(=O)(OCC)OC1CC(n2cc(C)c(=O)n(C)c2=O)OC1CO[Si](C)(C)C(C)(C)C (stereo unspecified)", "TGI": "> 100 µM"}
{"compound": "O=C1C2=C(CCC2)Nc2cccc3ncn1c23", "TGI": "> 100 µM"}
{"compound": "CC(C)=CCC[C@@H](C)C1=C(O)C(N)=C(C)C(=O)C1=O", "TGI": "> 64.8 µM"}
{"compound": "CCOC(=O)c1ccc(Nc2nc3ccc(C(F)(F)F)cc3nc2C(=O)OCC)cc1", "TGI": "> 100 µM"}

----------
system: SF-268 CNS; assay: NCI tumour cell line growth inhibition, 48 h

{"compound": "COc1ccc(/C=N/n2c(C)nc3c(sc(=S)n3-c3ccccc3)c2=O)cc1", "TGI": "> 100 µM"}
{"compound": "CC1OC(c2ccc3c(c2O)C(=O)C2=C(C3=O)C3(O)C(=O)CC(C)(O)CC3(O)C=C2)CC(O)C1O (stereo not given)", "TGI": "> 60 µM"}
{"compound": "CC(C)[Si](OC/C(=C/COC(C)(C)C)[C@H]1CC=C(C(=O)c2ccccc2N2CN(C)C(=O)N(C)C2)C1)(C(C)C)C(C)C", "TGI": "17.3 µM"}
{"compound": "CCOC(=O)NC(Nc1c(F)c(F)c(F)c(F)c1F)(C(F)(F)F)C(F)(F)F", "TGI": "> 100 µM"}
{"compound": "O=S1CSSC1", "TGI": "58.4 µM"}
{"compound": "CCCCCCC(C)CCCCCCCCCCC(=O)O (stereo not given)", "TGI": "> 100 µM"}
{"compound": "O=C1c2cccc(O)c2C(=O)c2c(O)cc(CO)cc21", "TGI": "> 100 µM"}
{"compound": "O=C1c2cccc3cccc(c23)C(=O)N1O", "TGI": "> 100 µM"}
{"compound": "COc1ccc2c(c1)c(=O)c1c(NCCNCCO)ccc3c(=O)n(CCN(C)C)c(=O)n2c31", "TGI": "0.619 µM"}
{"compound": "O=C1C2=Nc3ccccc3C(O)(C(=O)O)N2c2ccccc21 (stereo not given)", "TGI": "> 100 µM"}

----------
system: UACC-62 melanoma; test: NCI tumour cell line growth inhibition, 48 h
Measured TGI values are reported for all entries that follow.

{"molecule": "Cc1c(C)c(CC(=O)N2CC2)c(C)c(C)c1CC(=O)N1CC1", "TGI": "17.2 µM"}
{"molecule": "N#C/C(=C1\\SC(N=Nc2ccc(Cl)cc2)C(=O)N1c1ccccc1)c1nc2ccccc2[nH]1 (stereo not given)", "TGI": "> 100 µM"}
{"molecule": "Cc1cc2c(cc1Cl)S/C(=C/C(=O)O)C(Nc1cccc3nsnc13)=NS2(=O)=O", "TGI": "> 66.2 µM"}
{"molecule": "CSc1nc2c(ncn2C2OC(CO)C(O)C(O)C2O)c(=O)[nH]1 (stereo not given)", "TGI": "> 100 µM"}
{"molecule": "CCN(CC)c1ccc(/C=C/C2=[N+](C)c3ccccc3C2(C)C)c(C)c1", "TGI": "2.14 µM"}
{"molecule": "CCCCCCC(C)CCCCCCCCCCC(=O)O (stereo not given)", "TGI": "> 100 µM"}
{"molecule": "O=C(c1cccs1)C1NO[N+]([O-])=C1c1cccs1 (stereo not given)", "TGI": "24.8 µM"}
{"molecule": "Cc1cccc(C)c1N1C(=O)C(=O)C(c2nc3ccccc3s2)C(=Nc2cccc3c(=O)[nH][nH]c(=O)c23)C1=O (stereo not given)", "TGI": "> 100 µM"}
{"molecule": "Cc1c(-c2ccccc2)[nH]n(C2=NCCN2)c1=O", "TGI": "> 100 µM"}
{"molecule": "CN(C)CCCNC(=O)c1c(O)c2ccccc2n(C)c1=O", "TGI": "> 100 µM"}
